target: Recombinant human his-tagged IGF 1R extracellular domain protein (human) (UniProt P08069); assay: SPR, captured antibody, pH 7.4
Collected kon values appear next to each entry.
Field: numeric (M⁻¹ s⁻¹). Do not append units.

Worked examples, 4 binders total:
VRDN-03127 (antibody, V domains shown) VH: EVQLVESGGGVVQPGRSLRLSCAASGFTFSDYTMHWVRQAPGKGLEWVAIIWFDGSSKYYADSVKSRFTISRDNSKNTLYLQMNSLRAEDTAVYYCARELGRRYFDIWGQGTLVTVSS VL: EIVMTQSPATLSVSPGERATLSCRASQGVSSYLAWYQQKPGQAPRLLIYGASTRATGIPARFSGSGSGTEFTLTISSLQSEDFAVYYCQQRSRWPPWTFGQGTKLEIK | 131000
VRDN-03047 (antibody, V domains shown) VH: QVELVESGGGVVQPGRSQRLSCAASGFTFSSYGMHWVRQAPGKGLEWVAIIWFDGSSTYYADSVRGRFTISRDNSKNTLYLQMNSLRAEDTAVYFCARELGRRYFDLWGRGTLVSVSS VL: EIVLTQSPATLSLSPGERATLSCRASQSVSSYHAWYQQKPGQAPRLLIYDASKRATGIPARFSGSGSGTDFTLTISSLEPEDFAVYYCQQRSKWPPWTFGQGTKVESK | 95700
VRDN-03039 (antibody, V domains shown) VH: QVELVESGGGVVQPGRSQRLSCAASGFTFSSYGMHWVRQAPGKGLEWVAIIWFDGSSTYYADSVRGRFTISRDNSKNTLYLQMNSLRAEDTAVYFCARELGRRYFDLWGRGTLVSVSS VL: EIVLTQSPATLSLSPGERATLSCRHSQSVSSYLAWYQQKPGQAPRLLIYDASKRATGIPARFSGSGSGTDFTLTISSLEPEDFAVYYCQQRSKWPPWTFGQGTKVESK | 294000
VRDN-03123 (antibody, V domains shown) VH: EVQLVESGGGVVQPGRSLRLSCAASGFTFDDYAMHWVRQAPGKGLEWVAIIWFDGSSKYYADSVKGRFTISRDNSKNTLYLQMNSLRAEDTAVYYCARELGRRYFDIWGQGTLVTVSS VL: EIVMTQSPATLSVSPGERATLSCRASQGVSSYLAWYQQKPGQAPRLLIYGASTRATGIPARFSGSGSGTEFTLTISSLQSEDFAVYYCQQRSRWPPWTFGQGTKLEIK | 64200

With those in mind, consider the next binder.
# input binder: VRDN-03043 (antibody, V domains shown) VH: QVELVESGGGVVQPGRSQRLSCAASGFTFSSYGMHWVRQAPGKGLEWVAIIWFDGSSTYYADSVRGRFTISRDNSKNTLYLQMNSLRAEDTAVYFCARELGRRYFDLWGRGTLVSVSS VL: EIVLTQSPATLSLSPGERATLSCRASQSHSSYLAWYQQKPGQAPRLLIYDASKRATGIPARFSGSGSGTDFTLTISSLEPEDFAVYYCQQRSKWPPWTFGQGTKVESK ; wanted: its kon
493000
